- Tested on: P94_40
- ASSAY_REMARKS: qHTS profiling for inhibitors of Plasmodium falciparum proliferation (AID 504749); also: nearly all actives have a fitted effect of over 60% in size
- APPLIED_CONDITIONS: P. falciparum in erythrocytes, SYBR Green DNA, 72 h; series mostly up to 28.7 µM
Inconclusive results are not listed. Calls of active or inactive are those of the source. Calls follow the shape of the dose curve; as a rule, active = well fitted inhibition curve with a large enough effect; inconclusive = small, poorly fitted or top-dose-only effect; inactive = flat fitted curve, though single readings scatter.
Labels: y = active, n = inactive

molecule=C[C@H](N)C(=O)N[C@@H](C)P(=O)(O)O experimental_system=P94_40 label_class=n
molecule=CCOC(=O)c1c[nH]c2cc(OCC(C)C)c(OCC(C)C)cc2c1=O experimental_system=P94_40 label_class=y
molecule=COc1ccc(-c2noc(CC(=O)O)c2-c2ccc(OC)cc2)cc1 experimental_system=P94_40 label_class=n
molecule="CC(CNC(=O)c1cccnc1)NC(=O)c1cccnc1 (stereo not given)" experimental_system=P94_40 label_class=n
molecule=CCOC(=O)Cc1ccc(-c2ccccc2)cc1 experimental_system=P94_40 label_class=n
molecule=CCCCC/C=C\C/C=C\C/C=C\CCCCC(=O)O experimental_system=P94_40 label_class=n
molecule=CC(=O)Oc1cccc(C(=O)O)c1OC(C)=O experimental_system=P94_40 label_class=n
molecule=CC[C@H]1OC(=O)[C@H](C)[C@@H](O[C@H]2C[C@@](C)(OC)[C@@H](O)[C@H](C)O2)[C@H](C)[C@@H](O[C@@H]2O[C@H](C)C[C@H](N(C)C)[C@H]2O)[C@](C)(O)C[C@@H](C)CN(C)[C@H](C)[C@@H](O)[C@]1(C)O experimental_system=P94_40 label_class=y
molecule=Cc1cccc(Nc2ncccc2C(=O)O)c1C experimental_system=P94_40 label_class=n
molecule="CC(C)CCCC(C)NC(C)C (stereo not given)" experimental_system=P94_40 label_class=n

====

- ASSAY_REMARKS: Cell Viability - LYMP2-025 (AID 976);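 also: cells exposed to compound for 24 h at 37 °C; plate controls were DMSO only for no effect and tetraoctylammonium bromide control for full effect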
- APPLIED_CONDITIONS: LYMP2-025 lymphoblastoid cell viability; series mostly up to 92.2 µM
Records with an inconclusive call do not appear. Activity calls are given as the source filed them. Calls come from the whole dose curve; as a rule, active = well fitted cell-killing curve with a large enough effect; inconclusive = small, poorly fitted or top-dose-only effect; inactive = flat fitted curve, though single readings scatter.
RECORDED_METRIC: outcome

compound=CC1=CC(=O)NS(=O)(=O)O1 recorded_measurement=inactive
compound=OCc1ccccc1 recorded_measurement=inactive
compound=OB(O)O recorded_measurement=inactive
compound=CCCCO recorded_measurement=inactive
compound=Oc1cccc(O)c1O recorded_measurement=inactive
compound="CC1=CCC2CC1C2(C)C (stereo not drawn)" recorded_measurement=inactive
compound=Oc1ccc(/C=C/c2cc(O)cc(O)c2)cc1 recorded_measurement=inactive
compound=C[C@H](CCC(=O)O)[C@H]1CC[C@H]2[C@@H]3CC[C@@H]4C[C@H](O)CC[C@]4(C)[C@H]3C[C@H](O)[C@]12C recorded_measurement=inactive
compound=C/C=C/C=C/C(=O)O recorded_measurement=inactive
compound=CO/N=C(/C(=O)N[C@@H]1C(=O)N2C(C(=O)O)=C(COC(N)=O)CS[C@H]12)c1ccco1 recorded_measurement=inactive
compound=Cc1ccc(S(=O)(=O)O)cc1C recorded_measurement=inactive
compound=CCOC(C)OCC recorded_measurement=inactive
compound=C[C@H](CCC(=O)O)[C@H]1CC[C@H]2[C@@H]3[C@H](O)C[C@@H]4C[C@H](O)CC[C@]4(C)[C@H]3C[C@H](O)[C@]12C recorded_measurement=inactive
compound=c1ccc2ccccc2c1 recorded_measurement=inactive
compound=O=P(O)(O)O recorded_measurement=inactive
compound=CC(C)O recorded_measurement=inactive
compound=Cc1ncc[nH]1 recorded_measurement=inactive
compound=OCl recorded_measurement=inactive
compound=OC[C@H]1O[C@@H]2O[C@H]3[C@H](O)[C@@H](O)[C@@H](O[C@H]4[C@H](O)[C@@H](O)[C@@H](O[C@H]5[C@H](O)[C@@H](O)[C@@H](O[C@H]6[C@H](O)[C@@H](O)[C@@H](O[C@H]7[C@H](O)[C@@H](O)[C@@H](O[C@H]1[C@H](O)[C@H]2O)O[C@@H]7CO)O[C@@H]6CO)O[C@@H]5CO)O[C@@H]4CO)O[C@@H]3CO recorded_measurement=inactive
compound=COC(=O)c1ccccc1O recorded_measurement=inactive
compound=CCCCC recorded_measurement=inactive
compound=O.O.O.O.O.O.O.O=S(=O)([O-])[O-].[Co+2] recorded_measurement=inactive
compound=CC[C@H]1OC(=O)[C@H](C)[C@@H](O[C@H]2C[C@@](C)(OC)[C@@H](O)[C@H](C)O2)[C@H](C)[C@@H](O[C@@H]2O[C@H](C)C[C@H](N(C)C)[C@H]2O)[C@](C)(O)C[C@@H](C)CN(C)[C@H](C)[C@@H](O)[C@]1(C)O recorded_measurement=inactive

====

- ASSAY_REMARKS: S16 Schwann cell PMP22 intronic element firefly luciferase assay (AID 624032); also: nearly all actives have a fitted effect of over 30% in size
- APPLIED_CONDITIONS: S16 rat Schwann cells, PMP22 element FLuc, 24 h; series mostly up to 57.5 µM
Results filed as inconclusive are left out. Calls of active or inactive are those of the source. Calls follow the shape of the dose curve; as a rule, active = well fitted inhibition curve with a large enough effect; inconclusive = small, poorly fitted or top-dose-only effect; inactive = no such curve, though single readings can be large or run the other way.
Outcome codes: class 1 for active, class 0 for inactive

compound=CC(C)(CO)[C@@H](O)C(=O)NCCC(=O)NCCSSCCNC(=O)CCNC(=O)[C@H](O)C(C)(C)CO label_class="class 0"
compound=CC(=O)N=c1sc(S(N)(=O)=O)nn1C label_class="class 0"
compound=O.O.O.O.O.O.O.O=S(=O)([O-])[O-].[Co+2] label_class="class 0"
compound="CS(=O)(=O)OCC(O)C(O)COS(C)(=O)=O (stereo not given)" label_class="class 0"
compound=CCCCCCOC(=O)c1cccnc1 label_class="class 0"
compound=CO[C@H]1C[C@@H]2CC[C@@H](C)[C@@](O)(O2)C(=O)C(=O)N2CCCC[C@H]2C(=O)O[C@H]([C@H](C)C[C@@H]2CC[C@@H](OC(=O)C(C)(CO)CO)[C@H](OC)C2)CC(=O)[C@H](C)/C=C(\C)[C@@H](O)[C@@H](OC)C(=O)[C@H](C)C[C@H](C)/C=C/C=C/C=C/1C label_class="class 0"
compound=C[C@]12CC[C@@H]3c4ccc(OC(=O)c5ccccc5)cc4CC[C@H]3[C@@H]1CC[C@@H]2O label_class="class 1"
compound=FC(F)(F)COCC(F)(F)F label_class="class 0"
compound=NCCN label_class="class 0"
compound="CCCCCCCCCCCCCCCCCC(=O)OCC(C)O (stereo not given)" label_class="class 0"

====

- ASSAY_REMARKS: Drug repurposing screens with cells derived from glioblastoma tumor samples (AID 1345199); also: % is scaled to controls: 0 for no effect and ±100 for the full control effect; nearly all actives have a fitted effect of over 40% in size
- APPLIED_CONDITIONS: GBM patient neurospheres viability, ATP luminescence, 48 h; at 46.1 µM (top of the series); tumour line C
Records with an inconclusive call do not appear. Where a SMILES comes first, the peptide text is derived from it. [ ]: non-standard residue; d: D form. pGlu = O=C1CC[C@@H](C(=O)O)N1
RECORDED_METRIC: activity, negative = cell killing (%)

compound="CC12CCC(C1)C(C)(C)C2=O (stereo not drawn)" recorded_measurement=19.6
compound=OC[C@H]1O[C@@H](O[C@H]2[C@H](O)[C@@H](O)[C@H](O)O[C@@H]2CO)[C@H](O)[C@@H](O)[C@@H]1O recorded_measurement=-13.5
compound=Cn1c(O)c(N=NC(N)=S)c2ccccc21 recorded_measurement=-19.8
compound=CCOC(=O)[C@@H](N)CS recorded_measurement=1.04
compound=CCCCCCCCCCCCCCCC(=O)OC[C@@H](O)[C@H]1OC[C@H](O)[C@H]1O recorded_measurement=-6.66
compound=CO[C@@H]1[C@H](OC(=O)/C=C/C=C/C=C/C=C/C(=O)O)CC[C@]2(CO2)[C@H]1[C@@]1(C)O[C@@H]1CC=C(C)C recorded_measurement=4.82
compound=CC(=C\c1ccccc1)/C=C1/SC(=S)N(CC(=O)O)C1=O recorded_measurement=-14.3
compound=O=C(O)COc1ccc(CCNS(=O)(=O)c2ccccc2)s1 recorded_measurement=-21.9
compound=OC[C@@H](O)C(O)[C@H](O)CO recorded_measurement=11.8
compound=N#Cc1ccc2c(c1)N(CCCN1CCC(O)CC1)c1ccccc1S2 recorded_measurement=15.3
compound="CC[C@H](C)[C@H](NC(=O)[C@H](Cc1ccccc1)NC(=O)[C@H](C)NC(=O)[C@H](CC(=O)O)NC(=O)[C@H](CCCCN)NC(=O)[C@H](CO)NC(=O)[C@@H]1CCCN1C(=O)[C@@H]1CCC(=O)N1)C(=O)NCC(=O)N[C@@H](CC(C)C)C(=O)N[C@@H](CCSC)C(N)=O ([pGlu]PSKDAFIGLM-NH2)" recorded_measurement=-14.3
compound="C[S+](C)CCC(N)C(=O)O (stereo not drawn)" recorded_measurement=-27.3
compound=C[C@H](O)CN(C)C recorded_measurement=-13.2
compound=COc1ccc(/C=C/C(=O)O)cc1 recorded_measurement=9.31
compound=CC(C)=CCC/C(C)=C/CC/C(C)=C/CC/C=C(\C)CC/C=C(\C)CCC=C(C)C recorded_measurement=-15.4
compound=Cc1cc(=O)c(C(=O)N[C@@H](C(=O)N[C@@H]2C(=O)N3C(C(=O)O)=C(CSc4nnnn4C)CS[C@H]23)c2ccc(O)cc2)c[nH]1 recorded_measurement=-6.97
compound=Nc1ncnc2c1ncn2[C@H]1CC[C@@H](CO)O1 recorded_measurement=-20.8
compound="O=C1CCC(c2ccccc2)(C2CCN(Cc3ccccc3)CC2)C(=O)N1 (stereo not drawn)" recorded_measurement=-22.6
compound=O=C1c2ccccc2C(=O)c2c1ccc(O)c2O recorded_measurement=-2.45
compound="CC1=CCC2CC1C2(C)C (stereo not drawn)" recorded_measurement=11.1
compound=O=C1c2ccccc2CN2C(=O)c3ccccc3CN12 recorded_measurement=-20
compound="CS(=O)(=O)OCC(O)C(O)COS(C)(=O)=O (stereo not drawn)" recorded_measurement=-1.32
compound=OCCCNc1ccccc1 recorded_measurement=-9.32
compound=COc1ccc(C(=O)c2ccc(C)cc2)c(O)c1 recorded_measurement=-21.4
compound=O=C(O)[C@H]1CN(C/C=C/P(=O)(O)O)CCN1 recorded_measurement=-5.57
compound=O=C(CCCN1CCC(C(=O)c2ccc(F)cc2)CC1)c1ccc(F)cc1 recorded_measurement=-4.95
compound=Oc1ccc(Cl)c2c1CCC2 recorded_measurement=-12.7
compound=CC[C@@H]1/C=C(\C)C[C@H](C)C[C@H](OC)[C@H]2O[C@@](O)(C(=O)C(=O)N3CCCC[C@H]3C(=O)O[C@H](/C(C)=C/[C@@H]3CC[C@@H](Cl)[C@H](OC)C3)[C@H](C)[C@@H](O)CC1=O)[C@H](C)C[C@@H]2OC recorded_measurement=-18.5
compound=O=C(OC[C@H]1O[C@@H](OC(=O)c2cc(O)c(O)c(OC(=O)c3cc(O)c(O)c(O)c3)c2)[C@H](OC(=O)c2cc(O)c(O)c(OC(=O)c3cc(O)c(O)c(O)c3)c2)[C@@H](OC(=O)c2cc(O)c(O)c(OC(=O)c3cc(O)c(O)c(O)c3)c2)[C@@H]1OC(=O)c1cc(O)c(O)c(OC(=O)c2cc(O)c(O)c(O)c2)c1)c1cc(O)c(O)c(OC(=O)c2cc(O)c(O)c(O)c2)c1 recorded_measurement=-14.4
compound=Cn1c(=O)c2c(ncn2CCOC(=O)C(C)(C)Oc2ccc(Cl)cc2)n(C)c1=O recorded_measurement=-18.4
compound=OCC(O)CO recorded_measurement=6.43
compound=O=P(O)(O)OC[C@H]1O[C@](O)(COP(=O)(O)O)[C@@H](O)[C@@H]1O recorded_measurement=-3.41
compound=Cn1cc(NC(=O)c2cc(NC(=O)c3cc(NC=O)cn3C)cn2C)cc1C(=O)NCCC(=N)N recorded_measurement=-26.2
compound=C=CCOc1ccc(CC(=O)O)cc1Cl recorded_measurement=0.211
compound=CN[C@@H]1[C@H](O[C@H]2[C@H](O[C@H]3[C@H](O)[C@@H](O)[C@H](N=C(N)N)[C@@H](O)[C@@H]3N=C(N)N)O[C@@H](C)[C@]2(O)CO)O[C@@H](CO)[C@H](O)[C@H]1O recorded_measurement=-12.6
compound="CC(C)c1nc(N(C)S(C)(=O)=O)nc(-c2ccc(F)cc2)c1/C=C/C(O)CC(O)CC(=O)O (stereo not drawn)" recorded_measurement=-19
compound=CC(=O)OCC(=O)[C@@]1(O)CC[C@H]2[C@@H]3CCC4=CC(=O)CC[C@]4(C)C3=CC[C@@]21C recorded_measurement=-8.95
compound=ClC(Cl)Cl recorded_measurement=-5.54
